B1: glmS ribozyme (parent)
chain: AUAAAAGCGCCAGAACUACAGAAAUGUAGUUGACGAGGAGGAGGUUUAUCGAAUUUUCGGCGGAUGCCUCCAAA

Variants of: B1
experimental protocol: KM; higher = weaker cofactor use; RNA array
stated conditions: with glucosamine-6-phosphate
Each entry belongs to exactly one class, chosen by where its KM falls: class A = under 1000 µM, class B = from 1000 µM up to 2000 µM, class C = 2000 µM and over

Reference set, count: 3
1) G13C C16A; class A
2) G32A C67A; class C
3) A39C U47A; class C

Query: For C16A G32C , which KM bin applies?
Response: class B

Query: For G13A U55C , which KM bin applies?
Response: class C

Query: For C10U C50G , which KM bin applies?
Response: class A

Query: For A14U G66C , which KM bin applies?
Response: class C

Query: For A14U U30A , which KM bin applies?
Response: class C

Query: For C16G U47G , which KM bin applies?
Response: class B

Query: For A42U U46G , which KM bin applies?
Response: class A

Query: For U31A A42G , which KM bin applies?
Response: class B

Query: For U54G U56A G66A , which KM bin applies?
Response: class B

Query: For G13A U47G , which KM bin applies?
Response: class B

Query: For U31C U45A , which KM bin applies?
Response: class C

Query: For G32U A64G , which KM bin applies?
Response: class C

Query: For A12U U55G , which KM bin applies?
Response: class A

Query: For A64G C67A , which KM bin applies?
Response: class B

Query: For C11U C50U , which KM bin applies?
Response: class A
